# Lookup of reported mass density keyed by entry
recorded_conditions: 333.15 K; 100 kPa; Liquid

{"molecule": "CCCCCCCCCCCCCC[P+](CCCCCC)(CCCCCC)CCCCCC.CS(=O)(=O)[O-] [trihexyltetradecylphosphonium methanesulfonate]", "mass density [kg/m3]": 907.4}
{"molecule": "CCCCCCCCCCCCCC[P+](CCCCCC)(CCCCCC)CCCCCC.[Br-] [tetradecyltrihexylphosphonium bromide]", "mass density [kg/m3]": 931.7}
{"molecule": "CCCCCCCCCCCCCC[P+](CCCCCC)(CCCCCC)CCCCCC.O=S(=O)([N-]S(=O)(=O)C(F)(F)F)C(F)(F)F", "mass density [kg/m3]": 1040.8}
{"molecule": "CCCCCCCCCCCCCC[P+](CCCCCC)(CCCCCC)CCCCCC.N#C[N-]C#N [tetradecyl(trihexyl)phosphonium dicyanamide]", "mass density [kg/m3]": 878.6}
